- Test system: MDA-MB-231 cells
- Assay procedure: Cell viability assay
- Format: cell-based, human
- Applied conditions: read-out: IC50 cell viability; 72 hr
Parameter measured: pIC50
// returns pIC50 (minus log10 of molar concentration), number only

What pIC50 value was documented for this molecule, CCCCCCCCCCCCCC(=S)NCCCCC(NC(=O)OCc1ccccc1)C(=O)Nc1ccccc1 (stereo not shown) ?
4.47
